This collection of values is drawn from ChEMBL document CHEMBL5370598.

Molecular target: Neuropeptide Y receptor type 4 (Homo sapiens, UniProt P50391)
Sequence (P50391 whole entry): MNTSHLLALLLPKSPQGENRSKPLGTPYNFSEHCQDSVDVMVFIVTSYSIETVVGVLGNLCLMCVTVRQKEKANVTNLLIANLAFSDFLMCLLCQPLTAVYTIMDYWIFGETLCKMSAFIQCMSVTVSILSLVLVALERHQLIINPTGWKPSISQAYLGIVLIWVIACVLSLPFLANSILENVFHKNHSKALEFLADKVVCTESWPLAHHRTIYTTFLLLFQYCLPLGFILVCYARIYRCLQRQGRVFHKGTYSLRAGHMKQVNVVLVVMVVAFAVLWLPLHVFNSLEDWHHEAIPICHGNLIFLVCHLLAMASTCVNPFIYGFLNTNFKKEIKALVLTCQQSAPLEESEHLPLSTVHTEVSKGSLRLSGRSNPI
Assay: Agonist activity at human Y4R expressed in CHO cells co-expressing Gqi5-mtAEQ by calcium2+ aequorin assay relative to control
Assay type: functional, cell-based
Conditions: filed as agonist
Starred links: 1 amine or outer side, 2 acyl side, 3 side chain; linkers in the order of their positions; H or OH if unused. Positions of bridges follow the written chain, without caps; N, C: chain ends. Non-standard residues stand in square brackets, D forms with d. Residues, ends and D or L forms follow the SMILES beside them. Arg(Nω-CO) = N/C(=N\C(=O)[*:3])NCCC[C@H](N[*:1])C(=O)[*:2]; Ethylenediamine = C(CN[*:2])N[*:1]
Property Name: Emax (%)

Compound: CCC(=O)NCCCC(=O)N[C@@H]1CC(=O)N[C@@H](CCCNC(=N)N)C(=O)N[C@@H](Cc2ccc(O)cc2)C(=O)N[C@H](C(=O)N[C@@H](CC(C)C)C(=O)N[C@@H](CCCNC(=N)N)C(=O)N[C@@H](Cc2ccc(O)cc2)C(N)=O)CCCN/C(N)=N/C(=O)NCCCCNC1=O.O=C(O)C(F)(F)F.O=C(O)C(F)(F)F.O=C(O)C(F)(F)F
Property Name: Emax
Reading: 65

Compound: CC(C)C[C@H](NC(=O)[C@@H]1CCCN/C(N)=N/C(=O)NCCCCNC(=O)[C@@H](N)CC(=O)N[C@@H](CCCNC(=N)N)C(=O)N[C@@H](Cc2ccc(O)cc2)C(=O)N1)C(=O)N[C@@H](CCCNC(=N)N)C(=O)N[C@@H](Cc1ccc(O)cc1)C(N)=O
Property Name: Emax
Reading: 85

Compound: CC(C)C[C@H](NC(=O)[C@@H]1CCCN/C(N)=N/C(=O)NCCCCNC(=O)[C@H](NC(=O)CCCN)CC(=O)N[C@@H](CCCNC(=N)N)C(=O)N[C@@H](Cc2ccc(O)cc2)C(=O)N1)C(=O)N[C@@H](CCCNC(=N)N)C(=O)N[C@@H](Cc1ccc(O)cc1)C(N)=O
Property Name: Emax
Reading: 69

Compound: CC(C)C[C@H](NC(=O)[C@@H]1CCCN/C(N)=N/C(=O)NCCCCNC(=O)[C@H](N)CC(=O)N[C@@H](CCCNC(=N)N)C(=O)N[C@@H](Cc2ccc(O)cc2)C(=O)N1)C(=O)N[C@@H](CCCNC(=N)N)C(=O)N[C@@H](Cc1ccc(O)cc1)C(N)=O
Property Name: Emax
Reading: 79

Compound: CCC(=O)N[C@@H]1CC(=O)NCCCCNC(=O)/N=C(\N)NCCC[C@@H](C(=O)N[C@@H](CC(C)C)C(=O)N[C@@H](CCCNC(=N)N)C(=O)N[C@@H](Cc2ccc(O)cc2)C(N)=O)NC(=O)[C@H](Cc2ccc(O)cc2)NC(=O)[C@H](CCCNC(=N)N)NC1=O
Property Name: Emax
Reading: 70

Compound: CC(C)C[C@H](NC(=O)[C@@H]1CCCN/C(N)=N/C(=O)NCCNC(=O)CC[C@H](N)C(=O)N[C@@H](CCCNC(=N)N)C(=O)N[C@@H](Cc2ccc(O)cc2)C(=O)N1)C(=O)N[C@@H](CCCNC(=N)N)C(=O)N[C@@H](Cc1ccc(O)cc1)C(N)=O (H-ERY[Arg(Nω-CO)]LRY-NH2; linker 1-4 via Ethylenediamine)
Property Name: Emax
Reading: 65

Compound: CC(C)C[C@H](NC(=O)[C@@H]1CCCN/C(N)=N/C(=O)NCCCCNC(=O)C[C@@H](N)C(=O)N[C@@H](CCCNC(=N)N)C(=O)N[C@@H](Cc2ccc(O)cc2)C(=O)N1)C(=O)N[C@@H](CCCNC(=N)N)C(=O)N[C@@H](Cc1ccc(O)cc1)C(N)=O
Property Name: Emax
Reading: 63
